Collected M = measured activity values appear next to each entry.
System: Geotrichum candidum (Gca)
Test: Poison plate assay (Experiment 2), fungal growth and Limpel synergy
Type: cell-based
Settings: Table 7, Gca; conc 70 μM (tetraconazole 7 μM); combinations 70 + 70, (I) + (II-i) 70 + 7
Measure: M = measured activity

In [3]: df
Out[3]:
                                   compound                  tested_on  test_result
0  CSC(=O)c1cccc2nnsc12 [acibenzolar-S-me (II-e)]  Geotrichum candidum (Gca)            3
1  CCC(C)(NC(=O)c1cc(Cl)c(C)c(Cl)c1)C(=O)CCl (stereo not shown) [zoxamide (II-j)]  Geotrichum candidum (Gca)            2
2  FC(F)C(F)(F)OCC(Cn1cncn1)c1ccc(Cl)cc1Cl (stereo not shown) [tetraconazole (II-i)]  Geotrichum candidum (Gca)            3
3  C=CCOC(Cn1ccnc1)c1ccc(Cl)cc1Cl (stereo not shown) [imazalil]  Geotrichum candidum (Gca)           68

Entry source: patent US20080234336A1
